Listing of entries alongside the reported Primary Lesions (% Inhibition).
System: adjuvant induced arthritis
Protocol notes: adjuvant induced arthritis test in the rat (primary and secondary lesions)
Assay type: in vivo, rat (Royal Hart, Wistar strain)
Condition context: oral 50 mg/kg once daily, day 21
The answer consists of two parts: a number and, after it, its unit.

// worked examples, Primary Lesions (% Inhibition) included
• N#CC=C(N)c1cccs1 [β-Amino-2-thiopheneacrylonitrile] = 14%
• N#CCC(=O)c1ccccc1 [Benzoylacetonitrile] = 45%
• N#CCC(=N)c1ccccc1 [Benzimidoylacetonitrile] = 58%

Now look at this one.
Observed Primary Lesions (% Inhibition) on adjuvant induced arthritis, entry N#CCC(=O)c1ccc(F)cc1 [(p-Fluorobenzoyl)-acetonitrile] , equals 32%

All figures here come from patent US4325949A.
